// data source = ChEMBL document CHEMBL1146182

Tested on: SH-SY5Y
Assay: Cell cycle arrest in SHSY5Y cells by accumulation at G1 phase after 4 hrs
Type: functional, Homo sapiens
Hi there, I'd appreciate the recorded Activity for every entry that follows.
State the answer as a number, implicitly in %.

Supply Activity value. Item: COc1ccc(-c2coc(C=O)c2-c2cc(OC)c(OC)c(OC)c2)cc1 53

Supply measured Activity of COc1ccc(-c2c(-c3cc(OC)c(OC)c(OC)c3)coc2C=O)cc1 in your reply. 32

Look up and state reported Activity for COc1ccc(/C=C\c2cc(OC)c(OC)c(OC)c2)cc1O 69

Supply recorded Activity for COc1ccc(-c2cocc2-c2cc(OC)c(OC)c(OC)c2)cc1O here. 33
